Assay: yeast display, Sf9 membrane polyspecificity reagent, FACS + sequencing; frameworks hold sequencing errors

sequenceRecord	polyreactivity (PSR sort gate)
QVQLVESGGGLVQAGGSLRLSCAASGFIFRRYAMGWYRQAPGKERELVAAISRGGGSTYYADSVKGRFTISRDNAKNTVYFQMNSLKPEDTAVYYCAARFVPYDAPLNERDYWGQGTQVTVSS	high polyreactivity
QVQLVESGGGLVQAGGSLRLSCAASGFIFGYNAMGWYRQEPGKERELVARIRYRGARTYYADSVKGRFTISRDNAKNTVYLQMNSLKPEDTAVYYCAAVASWPGGYDYWGQGTQVTVSS	high polyreactivity

====

Experiment: yeast display, Sf9 membrane polyspecificity reagent, FACS + sequencing; frameworks hold sequencing errors

sequenceRecord	polyreactivity (PSR sort gate)
QVQLVESGGGLVQAGGSLRLSCAASGSTFGSYAMGWYRQAPGKERELVAGISWSGGRTYYADSVKGRFTISRDNAKNTVYLQMNSLKPEDTAVYYRARDTGYYYARYNYWGQGTQVTVSS	low polyreactivity
QVQLEESGGGLVQAGGSLRLSCAASGRIFEYYAMGWYRQAPGIERELVAAINTGGNTYYADSVKGRFTISRDNAKNTVYLQMNSLKPEDTAVYYCATYPIWYGGYLSGTDYDYWGQGTQVTVSS	low polyreactivity
QVQLVESVGGLVQAGGSLRLSCAASGGIFWVYAMGWYRQAPGKERELVASISWNGGSTNYADSVKGLFTISRDNAKNTVYLQMNSLKPEDTAVYYCAAEYWTSYADYRYDYWGQGTQVTVSS	low polyreactivity

====

Experiment: yeast display, Sf9 membrane polyspecificity reagent, FACS + sequencing; frameworks hold sequencing errors

sequenceRecord	polyreactivity (PSR sort gate)
QVQLVESGGGLVQAGCSLRLSCAASGLTSTANAMGWYRQAPGKERELVAGITTGGSTYYADSVKGRFTISRDNAKNTVYLQMISLKPEDTAVYYCNAPTYADTTYDYWGQGTQVTVSS	low polyreactivity
QVQLEESGRGLVQAGGSLRLSCAASGRTFLQYAMGWYRQAPRKERELVAANTTSGGDTYYADSVKGRFTISRDNAKNTVYLQMNSLKPEDTAVYYCNADFRVYIPHVPYFVDFDYWGQGTQVTVSS	low polyreactivity
QVQLVESGGGLVQAGGSLRLRWDASGRILWYNAMGWYRQAPGKERELVAAIRSGGRTHYADSVKGRFTISRDNAKNTVYLQMNCLKPEDTAVYYCAARSVPYPYRRNPYDYWGQGTQVTVSS	high polyreactivity
QVQLLESGGGLVQAGRSLRLSCSASGRTLVYNAMGWYRQAPGKERELVAGITNGGSTNYADSVKGRFTISRDTAKNTVYLQMNSLKPEDTAVYYCAADSRVYPYYFGDFGYWGQGTQVTVSS	low polyreactivity
QVQLVESVGVLVQAGGSLRLSSAASGGILPRYAMGWYRQAPGKERELVAVITRGGSTYYADSVKGRFTISRDNAKNTVYLQMNSLKPEDNAVYYFAKYRYQTGIFYYWGQGTQVTVSS	high polyreactivity

====

Experiment: yeast display, Sf9 membrane polyspecificity reagent, FACS + sequencing; frameworks hold sequencing errors
observationType: polyreactivity (PSR sort gate)

sequenceRecord	observationType	recordedMeasurement
QVQLVESGGGLVQAGGSLRLSCAASGITFYRYMGWYRQAPGKERELVASITGRGGSTYYADSVKGRFTISRDNAKNTVYLQMNSLKPEDTAVYYCAAVFPTKSSTWYDYWGQGSQVTVSS	polyreactivity (PSR sort gate)	high polyreactivity
QVQLVESGGGLVQAGGSLRLSFAASGSIFASNTMGWNSPEPGKERELVAAISSNGGSTYYADSVKGRFTISRDNAKNTFYLQMNSLKPEDTGVYYCNAELSTSELGGMYSWGQGTQVTVSS	polyreactivity (PSR sort gate)	low polyreactivity
QVQLEESGGAFVQAGGSLRLSCAASGFIFVPYSMGWYREAPGKEREFVAAITASGGNTYYADSVKGRFSISRDNAKNTVYLQMNSVKPEDTAVYYCAADISGSLESLDYWGQGTQVTGSS	polyreactivity (PSR sort gate)	low polyreactivity
QVQLVESGGGLVQAGGSLRLSCAASGSIFDDYAMGWYRQAPGNERELVAAITSGGSTYYADSVKGRFTISRDNAKNTVYLQMNSLKPEDTAVYYWAAPENKSDEYDYWGQGTQVTVSS	polyreactivity (PSR sort gate)	low polyreactivity
QVQLVESGGGLVQAGGSLRLSCAASGFTFSLYAMGWYRQAPGKEREMVAAISRIGGRTYYADSVKGRFTISRDNAKNTVYLQMNSLKPEDTAVYYCAARQGYRSYRRYDYWGQGTQVTVSS	polyreactivity (PSR sort gate)	high polyreactivity

====

Assay: yeast display, Sf9 membrane polyspecificity reagent, FACS + sequencing; frameworks hold sequencing errors
observationType: polyreactivity (PSR sort gate)

sequenceRecord	recordedMeasurement
QVQLVESGGGLVQAGGSLRLSCAASGSIIKVYAMGWYRQAPGKERELVAAITSDGSTYYADSVKGRFTISRDNAKNTVYLQLNSLKPVDTAVYYCAASVYYLYFHGKYDYWGQGTQVTVSS	low polyreactivity
QVQLVESGGGLVQAGGSLRLSCAASGRTFVPYAMGWYRQAPGKEREFVAVITWGGGSTYYADSVKGRFTISRDNAKNTVYLQMNSLKPEDTAVYYCAARNRRATGLGSRYGYWGQGTQVTVSS	high polyreactivity
QVQLVESGGGLVQAGGSLRISCAASGNTFDYYTMGWYRQAPGKERDLVASIDWSTTTTYYADSVKGRFTISRDNAKTTVYLQMKSLKPEDTAVYYCNTVYDFYHLGLYSGFRYHYWGQGTQVTVSS	low polyreactivity
QVQLVESGVGLVQAGGSLRLSCAASGYTLDNYAMGWYRQAPGKERELVAGITFSGGSTFYADSVKGRFTISRDNAKNTVYLQMNSLKPEDTAVYYCAADAEFQADHKYGYWGQGTQVTVSS	low polyreactivity
QVQLVESGGGLVQAGGSLRLSCAASGSIFGYNTMGWYREAPGKERELVAAISYRGGSTYADSVKGRFTISRDNAKNTVYLQLNSLKPEDTAVYYSAATSYTATWRYYYWGQGTQVTVSS	high polyreactivity

====

Assay: yeast display, Sf9 membrane polyspecificity reagent, FACS + sequencing; frameworks hold sequencing errors
observationType: polyreactivity (PSR sort gate)

sequenceRecord	recordedMeasurement
QVQLVESGRALVQAGGSLRLSCAASGRICGIYSMGWNRQAPGKEREFVAAISDRSGSRTYYADSVKGRFTISRDNAKNTVYLQMNSLKPEDTAVYYCNARHQYQTLYPGGYYWGQGTQVTVSS	high polyreactivity
QVQLVESGGGLVQAGGSLRLSCAASGSTFYIYAMGWYRQAPGKERELVASIRLSTGRTNYADSVKGRFTISRDNAKNTVYLQMNSLKPEDTAVYYCAAAGYRGGGYWGQGTQVTVSS	high polyreactivity
QVQLEESGGRLVQEGGSLRLSCAASGSTFITNAMGWYRQAPGKEWELVAAITYSTGGTYYEDSVKGRFTISRDNAKNTVYLQMYSLKPEDTAVYYCAALLYFFLYDYWGQGTQVTVSS	low polyreactivity
QVQLVESGGGLVQAGGRLRLSCAASGLTFASYALGWYRQAPGKERELVARISRSGGSTYYADSVKGRFTISRDNAKNTVYLQMNSLIPEDTAVYYCAADYIFRRYPVGGIYDYDYWGQGTQVTLSS	high polyreactivity
QVQLVESGGGLVQAGGSLRLSCAASGSTFWIYAMGWYRPAPGKERELVAAITLRSGSTYYADSVKGRFTISRDNAKNTVYLQMNSLKPEDTAVYYCAKDYYGTYYAQYNYWGQGTQVTVSS	low polyreactivity
QVQLVESGGGLVQAGGSLRLSCAASGYIFIGYAMGWYRQAPGKERELVTYADSVKGRFTISRDNAKNTVYFQMNSRKPEDTAVYYCNKVPRRFSGLDENYWGQGTQVTVSS	low polyreactivity
QVQLVESGGGLVQAGGSLRLSCAASGSIFRPNAMGWYRQAPGKERELVAAITFRGSRTYYADSVKGRFTISRDNAKNTVYLQMNSLKPEDTAVYYCNADYSSYWTSYDYWGQGTQVTVSS	high polyreactivity
QVQLVESRRGLVQAGGSLRLSCAASGRIFYRYALGWYRQAPGKEREFVAAISRSGGTTYYADSVKGRFTISRDNAKNTVYLQMNSLNPEDTAVYYCAAGGSFWYFSPRYGYWGQGTQVTVSS	high polyreactivity
QVHLVESGGGLVQAGGCLRLSCAASGYIFKSYVMGWYRQAPGKERELVAAITWSGGSTYYADSVKGRFTMSRDNAKNTVYFQMNSLKPEDTAVYYCAAYPRRYRTTYDYWRQGTQVTVSS	high polyreactivity
QVQLVESGGGLVQAGGSLRLSCAASGLTFGTYAMGWYRQAPGKERELVAAISTSGVRTYYADSVKGRFTISRDNAKNTVYLQMNSLKPEDTAVYYCAARYNRAYSRDYWGQGTQVTVSS	high polyreactivity
QVQLVESGGGLVQAGGSLRLRCAASGLTFVYYAMGWYRQAPVKERELVAAITSGGSTYYADSVKGRFTISRDNAKNTVYLQMNSLKPEDTAVYYCAATYPGFYFLLDEYWGQGTQVTVSS	high polyreactivity
QVQLVESGGGLVHAGGSLLLSCAASGFISSRYAMGWYRQAPGKERELVAAISRGGGSTYYADSVKGRFTISRDNAKNSVYLQMNSLKPEYTAVYYCAAAARGSPQYDYWGQGSQVTVSS	high polyreactivity
QVQLEESGGGLVQAGGSLRLSCAASGFIFQYNAMGWYRQAPGKEREFVDAINYSGGNTYYADSVKGRFTISRDTAKNTVYLQMNSLKPEDTAVYYCNVRLWYGRWWYNRYNYWGQGTQVTVSS	high polyreactivity
QVQLVESGGGLVQAGGSLRLSCAASGGIFWSYAMGWYRQAPGKERELVAAISSGTYYADSVKGRFTISRDNAKNTVYLQMNSLIPEDTAVYYWNVQTYNVAWFYRYDMNYWGQGPQVTVSS	low polyreactivity
QVHLVESGGGLVQAGGSLRLSCAASGRIFAWYAMGWYRQAPGKERELVAAITWGGGRTYYADSVKGRFTISRDNAKNTVYLQMNSLKPEDSAFYYCNRDFDDEMWGQGTQVTVSS	low polyreactivity
QVQHVESRGCLLQAGGSLRLSCAASGITFRYYTMGWYRQAPGKESELVAAITWSGSSTYYAVSVKGRFTISRDNAKNTVYLQMNSLKPEHTAVYYCAKPYHQRSAKVDYWGQGTQVTVSS	low polyreactivity
QVQVVESGGGLVQEGGSHRISCAASGRIFFTNAMGWSRQAPGKERELVAAINDVGSTYYADSVKGRFTISRDNAKNTVYLQLNSLKAEDTAVYYCAVQAYGRGRSLKMYYWRQGTQVTVSS	high polyreactivity
QVQLVESGGGLVQEGGSLRLSCAASGRTIVSNAMGWYRQAPGKERELVAAIRYGGGRTYYADSVKGRFTISRDNAKNTVYLQMNSLKPEDTAVYYCAKRSVGGTGYYWGQGTQVTVSS	high polyreactivity
QVQVVESGGGLVQAGGSLRLSCAASGSTCYFNAMGWYRQAPGTERELVAAIEWSGGSTYYADSVKGRFTISRDNAKNTVYLQMTSLKPEDTAVYYCNRRDVIFLTGPPQYIFPTYDYWGQGTQVTVSS	low polyreactivity
QVQLVESGGGLVQAGGSLRLSCAASGSNIYPNAMGWYRQEPGKEREFVAVISSGGSTYYADSVKGRFTISRDNAKNTVYLQMNSMKPEDTAVYYCAADRGTVSFLYSPRAVDYWGQGTQVTVSS	low polyreactivity
QVQLVESGGGLVQAGGSLRLSCAASGSTLGGNAMGWYRQAPGKERELVAAITSSAGSTYYADSVKGRFTISRDNAKNTVYLQMNSLKPEDTAVYYCATSRDYIGYDYWGQGTQVTVSS	low polyreactivity

The measured values listed here are drawn from the nanobody polyreactivity screen of Harvey et al. (2022).
